target: protein A purified polyclonal antibody directed to the COOH-terminus of human Ang-(1-12)
assay name: Binding affinity and cross-reactivity of protein A purified polyclonal Ang-(1-12) antibody (IgG)
condition notes: protein A purified polyclonal antibody (IgG) to human Ang-(1-12); cross-reactivity
assay endpoint: pEC50
A value of pEC50 is the negative decimal logarithm of a concentration given in moles per litre.

Determine its reported pEC50: angiotensin II (DRVYIHPF; Angiotensin-2; UniProt P01019 25-32, looked up) [Ang II, angiotensin peptide, main metabolic product of ^125I-Ang-(1-12)]
9.55

Data provenance: paper PMC3236741
